Data provenance is paper PMC10709440.

target: Drosophila OR10a (Drosophila melanogaster); construct: expressed in transfected cells; assay: Calcium ion fluorescence (GCaMP6) assay, OR10a stable HEK293 cell line; type: cell-based; details: HEK293, read-out: OR10a response (VUAA1-normalized response), VOC concentration 100 μM
READOUT TYPE: activation at 100 µM (%)
# output: bare number, implied unit %

Exam item: Answer briefly: activation at 100 µM recorded on Drosophila OR10a (Drosophila melanogaster) for CC(=O)c1ccccc1 [acetophenone]
Marked response: 24

Exam item: Answer briefly: activation at 100 µM recorded on Drosophila OR10a (Drosophila melanogaster) for CCCCCCCO [1-heptanol]
Marked response: 0

Exam item: Answer briefly: activation at 100 µM recorded on Drosophila OR10a (Drosophila melanogaster) for CCOC(=O)c1ccccc1 [ethyl benzoate]
Marked response: 49

Exam item: Answer briefly: activation at 100 µM recorded on Drosophila OR10a (Drosophila melanogaster) for CCCCCC(O)CC (stereo not shown) [3-octanol]
Marked response: 6

Exam item: Answer briefly: activation at 100 µM recorded on Drosophila OR10a (Drosophila melanogaster) for CCCCOC(=O)CC [butyl propanoate]
Marked response: 0

Exam item: Answer briefly: activation at 100 µM recorded on Drosophila OR10a (Drosophila melanogaster) for CCOC(=O)CC [ethyl propionate]
Marked response: 0

Exam item: Answer briefly: activation at 100 µM recorded on Drosophila OR10a (Drosophila melanogaster) for Cc1ccc(C)c(C)c1 [1,2,4-trimethylbenzene]
Marked response: 0

---

Biological target: Drosophila OR13a (Drosophila melanogaster, UniProt Q9VXL0)
Construct: expressed in transfected cells
Sequence (Q9VXL0 1-418): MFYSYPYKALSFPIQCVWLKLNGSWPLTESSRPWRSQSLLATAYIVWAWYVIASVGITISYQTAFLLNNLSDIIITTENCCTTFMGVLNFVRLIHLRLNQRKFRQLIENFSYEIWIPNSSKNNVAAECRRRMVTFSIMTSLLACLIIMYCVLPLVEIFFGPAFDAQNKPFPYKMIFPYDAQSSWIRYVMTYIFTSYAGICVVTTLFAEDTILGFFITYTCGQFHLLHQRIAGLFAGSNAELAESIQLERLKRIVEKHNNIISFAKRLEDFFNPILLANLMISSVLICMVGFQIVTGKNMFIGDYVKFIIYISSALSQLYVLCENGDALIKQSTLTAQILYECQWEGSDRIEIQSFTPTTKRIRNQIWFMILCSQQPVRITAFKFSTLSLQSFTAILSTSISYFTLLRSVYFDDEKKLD
Sequence (Q9VNB5 1-486 partner): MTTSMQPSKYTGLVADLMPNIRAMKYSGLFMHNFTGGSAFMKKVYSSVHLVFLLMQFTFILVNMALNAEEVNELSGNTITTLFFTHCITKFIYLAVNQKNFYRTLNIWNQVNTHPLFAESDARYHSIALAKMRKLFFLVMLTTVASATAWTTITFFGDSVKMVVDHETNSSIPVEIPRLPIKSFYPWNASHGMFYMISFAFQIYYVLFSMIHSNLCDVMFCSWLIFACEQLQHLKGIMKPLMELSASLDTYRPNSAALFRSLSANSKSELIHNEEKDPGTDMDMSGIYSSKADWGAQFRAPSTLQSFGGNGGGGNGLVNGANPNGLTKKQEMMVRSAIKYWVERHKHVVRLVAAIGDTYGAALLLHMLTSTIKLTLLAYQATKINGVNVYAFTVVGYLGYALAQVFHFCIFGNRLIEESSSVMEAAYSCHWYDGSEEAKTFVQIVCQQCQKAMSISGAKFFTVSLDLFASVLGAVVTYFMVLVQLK
Assay: Calcium ion fluorescence (GCaMP6) assay, OR13a stable HEK293 cell line
Assay type: cell-based
Settings: EC50, fitted average curve, the 13th table; fit to the average curve, n 0.854956
READOUT TYPE: EC50
Note to self: number, then unit, no commentary.

Exam item: Give recorded EC50. C=CC(O)C/C=C\CC (stereo not shown) [(5Z)-octa-1,5-dien-3-ol]
Marked response: 7.19 µM

---

I'd be grateful if you could share measured activation at 100 µM for these entries.
molecular target: Drosophila OR49b (Drosophila melanogaster); construct: expressed in transfected cells; experiment: cell-based; settings: HEK293; VOC concentration 100 μM; read-out: OR49b response (VUAA1-normalized response)
Sequence (Q9V6H2 whole entry, one chain of several, the tested form may be a part): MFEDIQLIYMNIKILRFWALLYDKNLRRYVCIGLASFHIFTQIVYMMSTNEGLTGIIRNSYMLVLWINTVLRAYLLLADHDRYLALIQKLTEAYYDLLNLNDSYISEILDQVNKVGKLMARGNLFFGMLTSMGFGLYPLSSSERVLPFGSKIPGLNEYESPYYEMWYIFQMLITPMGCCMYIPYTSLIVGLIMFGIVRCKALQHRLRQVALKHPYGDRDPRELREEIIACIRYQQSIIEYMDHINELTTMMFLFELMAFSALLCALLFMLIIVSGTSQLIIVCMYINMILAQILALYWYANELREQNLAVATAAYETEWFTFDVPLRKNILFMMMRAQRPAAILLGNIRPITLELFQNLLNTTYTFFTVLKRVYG
# output: bare number, implied unit %

Exam item: Give recorded activation at 100 µM. CCCCCC(=O)OCC [ethyl hexanoate]
Marked response: 0

Exam item: Give recorded activation at 100 µM. CCCCOC(=O)CC [butyl propanoate]
Marked response: 0

Exam item: Give recorded activation at 100 µM. C=C1CC/C=C(\C)CC[C@@H]2[C@@H]1CC2(C)C [(-)-trans-caryophyllene]
Marked response: 0

Exam item: Give recorded activation at 100 µM. CCCC(=O)OCC [ethyl butyrate]
Marked response: 0

Exam item: Give recorded activation at 100 µM. CCCCC(C)=O [2-hexanone]
Marked response: 0

Exam item: Give recorded activation at 100 µM. Cc1ccc(C)c(C)c1 [1,2,4-trimethylbenzene]
Marked response: 20

Exam item: Give recorded activation at 100 µM. CCCCCCCO [1-heptanol]
Marked response: 6

Exam item: Give recorded activation at 100 µM. Cc1cccc(O)c1 [3-methylphenol]
Marked response: 43

Exam item: Give recorded activation at 100 µM. CCCC(O)CC (stereo not drawn) [3-hexanol]
Marked response: 8

Exam item: Give recorded activation at 100 µM. CCCCCC(C)O (stereo not drawn) [2-heptanol]
Marked response: 6.51

Exam item: Give recorded activation at 100 µM. CCCCCCCCC(CO)CCCCCC (stereo not drawn) [2-hexyl-1-decanol]
Marked response: 8.56

Exam item: Give recorded activation at 100 µM. CC1=CCC2CC1C2(C)C (stereo not drawn) [alpha-pinene]
Marked response: 0

Exam item: Give recorded activation at 100 µM. O=Cc1ccccc1 [benzaldehyde]
Marked response: 23

Exam item: Give recorded activation at 100 µM. C=CCc1ccc(O)c(OC)c1 [eugenol]
Marked response: 0

Exam item: Give recorded activation at 100 µM. CCOC(=O)CC [ethyl propionate]
Marked response: 0

Exam item: Give recorded activation at 100 µM. CCCCCC(=O)CC [3-octanone]
Marked response: 0

Exam item: Give recorded activation at 100 µM. CCCCCO [1-pentanol]
Marked response: 0

Exam item: Give recorded activation at 100 µM. CC1=CC[C@@H](C(C)(C)O)CC1 [alpha-terpineol]
Marked response: 0

Exam item: Give recorded activation at 100 µM. CC(=O)OCC(C)C [isobutyl acetate]
Marked response: 0

Exam item: Give recorded activation at 100 µM. CC(=O)c1ccccc1 [acetophenone]
Marked response: 13

Exam item: Give recorded activation at 100 µM. Cc1ccc(O)cc1 [4-methylphenol]
Marked response: 44

Exam item: Give recorded activation at 100 µM. C=CC(O)C/C=C\CC (stereo not drawn) [(5Z)-octa-1,5-dien-3-ol]
Marked response: 0

Exam item: Give recorded activation at 100 µM. CC1=CCC2C(C1)C2(C)C (stereo not drawn) [3-carene]
Marked response: 0

Exam item: Give recorded activation at 100 µM. CCOC(=O)c1ccccc1 [ethyl benzoate]
Marked response: 0

Exam item: Give recorded activation at 100 µM. C=C1CCC2CC1C2(C)C (stereo not drawn) [beta-pinene]
Marked response: 0

Exam item: Give recorded activation at 100 µM. CCCCCC(C)=O [2-heptanone]
Marked response: 0

Exam item: Give recorded activation at 100 µM. CCCCCC(O)CC (stereo not drawn) [3-octanol]
Marked response: 5.5

---

I'd be grateful if you could share measured activity at 100 µM for these entries.
target: Drosophila OR10a (Drosophila melanogaster, UniProt Q9VYZ1); construct: expressed in transfected cells; assay: cell-based; set-up: GCaMP6 calcium fluorescence in stable HEK293 OR+ORCO lines; peak dF normalised to 50 uM VUAA1 (=1); details: HEK293; relative to 50 uM VUAA1 response; below 0.05 set to 0; read-out: % activation
Sequence (Q9VYZ1 whole entry, one chain of several, the tested form may be a part): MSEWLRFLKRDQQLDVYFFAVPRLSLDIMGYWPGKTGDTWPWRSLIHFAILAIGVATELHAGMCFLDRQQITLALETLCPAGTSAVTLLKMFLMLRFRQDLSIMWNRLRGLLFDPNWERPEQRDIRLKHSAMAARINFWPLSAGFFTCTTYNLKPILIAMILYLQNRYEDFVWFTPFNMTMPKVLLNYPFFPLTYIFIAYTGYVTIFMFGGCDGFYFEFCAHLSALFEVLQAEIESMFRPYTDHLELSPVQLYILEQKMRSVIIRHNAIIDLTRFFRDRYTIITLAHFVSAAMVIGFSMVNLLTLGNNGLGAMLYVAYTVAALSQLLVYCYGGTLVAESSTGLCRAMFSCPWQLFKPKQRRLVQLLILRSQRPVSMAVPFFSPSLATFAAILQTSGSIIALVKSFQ
# output: bare number, implied unit %

Exam item: Give recorded activity at 100 µM. C=C(C)C1CCC2(C)OC2C1 (single isomer, unassigned; (+)) [(+)-limonene oxide]
Marked response: 0

Exam item: Give recorded activity at 100 µM. C=C1CC[C@@]23C[C@@H]1C(C)(C)[C@@H]2CC[C@H]3C [(+)-beta-cedrene]
Marked response: 0

Exam item: Give recorded activity at 100 µM. C=C1[C@H]2CC[C@@H]3[C@H]2C(C)(C)CCC[C@]13C [(+)-longifolene]
Marked response: 0

Exam item: Give recorded activity at 100 µM. CC1=CCC[C@@]2(C)[C@@H]3CC[C@]12CC3(C)C [(−)-α-neoclovene]
Marked response: 12.4

---

molecular target: Drosophila OR47a (Drosophila melanogaster, UniProt P81921); construct: expressed in transfected cells; experiment: Calcium ion fluorescence (GCaMP6) assay, OR47a stable HEK293 cell line; format: cell-based; settings: HEK293, read-out: OR47a Average response (VUAA1-normalized)
Sequence (P81921 whole entry, one chain of several, the tested form may be a part): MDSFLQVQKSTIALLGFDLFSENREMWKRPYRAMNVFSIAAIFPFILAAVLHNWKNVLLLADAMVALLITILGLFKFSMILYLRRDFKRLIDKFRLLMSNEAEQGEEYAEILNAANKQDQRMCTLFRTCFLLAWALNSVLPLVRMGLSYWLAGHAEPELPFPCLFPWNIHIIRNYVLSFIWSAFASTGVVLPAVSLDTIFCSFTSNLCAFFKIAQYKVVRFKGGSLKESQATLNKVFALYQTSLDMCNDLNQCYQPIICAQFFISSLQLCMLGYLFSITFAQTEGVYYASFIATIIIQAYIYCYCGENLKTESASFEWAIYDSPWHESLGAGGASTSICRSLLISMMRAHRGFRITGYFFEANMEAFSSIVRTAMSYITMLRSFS
Decide by activation at 1 µM: equal to or exceeding 3% means Yes, less means No.

Exam item: Evaluate CCOC(=O)c1ccccc1 [ethyl benzoate] : activation at 1 µM at minimum 3%?
Marked response: Yes

Exam item: Evaluate CCCC(O)CC (stereo not shown) : activation at 1 µM at minimum 3%?
Marked response: No

Exam item: Evaluate CC(=O)OCCC(C)C [isopentyl acetate] : activation at 1 µM at minimum 3%?
Marked response: No

Exam item: Evaluate CCCCCC(=O)OCC [ethyl hexanoate] : activation at 1 µM at minimum 3%?
Marked response: Yes

Exam item: Evaluate `CCCCC(C)=O` : activation at 1 µM at minimum 3%?
Marked response: Yes

Exam item: Evaluate COC(=O)c1ccccc1O [methyl salicylate] : activation at 1 µM at minimum 3%?
Marked response: Yes
